Just for reference, patent US11339130B1 is where these values come from.

Overview of reported pIC50 across a group of molecules:
- TARGET_SYSTEM: Human Calpain 2/NS1 (Homo sapiens)
- Sequence (P17655 1-700): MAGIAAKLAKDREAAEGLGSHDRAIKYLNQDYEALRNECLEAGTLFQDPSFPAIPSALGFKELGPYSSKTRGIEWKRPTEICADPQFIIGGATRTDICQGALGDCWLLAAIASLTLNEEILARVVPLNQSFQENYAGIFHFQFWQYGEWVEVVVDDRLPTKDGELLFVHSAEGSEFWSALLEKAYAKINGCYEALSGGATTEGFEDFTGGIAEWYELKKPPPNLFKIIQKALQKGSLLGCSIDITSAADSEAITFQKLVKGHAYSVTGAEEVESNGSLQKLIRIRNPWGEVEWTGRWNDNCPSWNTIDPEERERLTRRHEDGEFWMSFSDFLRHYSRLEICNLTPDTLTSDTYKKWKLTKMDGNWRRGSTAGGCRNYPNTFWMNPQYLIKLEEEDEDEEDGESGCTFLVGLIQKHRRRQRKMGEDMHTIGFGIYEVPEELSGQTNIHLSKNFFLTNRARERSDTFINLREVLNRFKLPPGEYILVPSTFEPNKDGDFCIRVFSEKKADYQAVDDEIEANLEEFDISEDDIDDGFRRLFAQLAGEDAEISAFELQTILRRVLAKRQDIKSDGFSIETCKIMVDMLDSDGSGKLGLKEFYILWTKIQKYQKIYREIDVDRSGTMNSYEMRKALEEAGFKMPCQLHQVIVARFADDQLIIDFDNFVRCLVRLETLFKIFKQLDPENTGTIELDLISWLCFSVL
- Sequence (P04632 1-268 partner): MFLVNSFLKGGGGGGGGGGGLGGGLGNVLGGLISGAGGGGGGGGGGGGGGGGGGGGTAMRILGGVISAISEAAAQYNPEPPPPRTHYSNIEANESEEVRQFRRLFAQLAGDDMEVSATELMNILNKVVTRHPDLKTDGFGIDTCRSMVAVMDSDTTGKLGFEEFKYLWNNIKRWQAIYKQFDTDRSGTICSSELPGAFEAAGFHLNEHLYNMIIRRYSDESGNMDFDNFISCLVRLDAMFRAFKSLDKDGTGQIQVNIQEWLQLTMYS
- PROCEDURE_DETAILS: Calpain inhibition continuous fluorescence (FRET) assay, Human Calpain 2/NS1
- Format: biochemical
- TEST_PARAMETERS: Column B; read-out: Human Calpain 2/NS1 IC50
pIC50: −log10 of the molar value.

NC(=O)C(=O)[C@H](Cc1ccccc1)NC(=O)c1cn(C#Cc2ccccc2)c2ccccc12 < 5.00
Cc1cc(C(=O)N[C@@H](Cc2ccccc2)C(=O)C(N)=O)n(-c2ccc(COc3ccccc3)cc2)n1 > 5.52
Cc1cc(C(=O)N[C@@H](Cc2ccccc2)C(=O)C(N)=O)n(-c2nc3c(C)cccc3s2)n1 < 5.00

Using the record for NC(=O)C(=O)[C@H](Cc1ccccc1)NC(=O)c1c(F)cnn1-c1ccccc1 , report its pIC50.
> 5.52

Using the record for Cc1ccccc1-c1nn(C)cc1C(=O)N[C@@H](Cc1ccccc1)C(=O)C(N)=O , report its pIC50.
5.00 to 5.52

Using the record for Cc1cc(C)cc(C[C@H](NC(=O)c2c(C)noc2-c2ccccc2)C(=O)C(N)=O)c1 , report its pIC50.
> 5.52
